measured-on: CDK7/Cyclin H/MAT-1 complex (Homo sapiens, UniProt P50613)
Construct: Human CDK7 (amino acids 1-346); His6 (N); TEV protease cleavage site (N); made in house; host or cells: baculovirus-SF9 insect cells
Sequence (P50613 whole entry, the tested form may be a part): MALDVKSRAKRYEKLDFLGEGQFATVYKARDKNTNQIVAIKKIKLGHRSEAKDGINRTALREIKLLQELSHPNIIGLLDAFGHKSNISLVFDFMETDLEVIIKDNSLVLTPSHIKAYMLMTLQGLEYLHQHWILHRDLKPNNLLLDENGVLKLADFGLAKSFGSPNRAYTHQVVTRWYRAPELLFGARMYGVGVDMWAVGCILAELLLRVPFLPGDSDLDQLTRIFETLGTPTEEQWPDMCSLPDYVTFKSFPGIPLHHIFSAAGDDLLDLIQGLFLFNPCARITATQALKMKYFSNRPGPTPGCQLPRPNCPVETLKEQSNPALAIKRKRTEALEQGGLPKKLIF
Sequence (P51946 whole entry partner, the tested form may be a part): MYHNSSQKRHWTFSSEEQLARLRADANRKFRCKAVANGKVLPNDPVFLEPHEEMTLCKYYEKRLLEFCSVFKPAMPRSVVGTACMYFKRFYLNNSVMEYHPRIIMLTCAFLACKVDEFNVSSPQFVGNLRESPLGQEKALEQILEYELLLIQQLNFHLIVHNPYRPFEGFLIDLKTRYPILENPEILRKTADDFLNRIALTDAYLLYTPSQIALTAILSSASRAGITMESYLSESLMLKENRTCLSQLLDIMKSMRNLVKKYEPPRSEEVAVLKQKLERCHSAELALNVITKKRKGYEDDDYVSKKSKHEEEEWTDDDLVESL
Sequence (P51948 whole entry partner, the tested form may be a part): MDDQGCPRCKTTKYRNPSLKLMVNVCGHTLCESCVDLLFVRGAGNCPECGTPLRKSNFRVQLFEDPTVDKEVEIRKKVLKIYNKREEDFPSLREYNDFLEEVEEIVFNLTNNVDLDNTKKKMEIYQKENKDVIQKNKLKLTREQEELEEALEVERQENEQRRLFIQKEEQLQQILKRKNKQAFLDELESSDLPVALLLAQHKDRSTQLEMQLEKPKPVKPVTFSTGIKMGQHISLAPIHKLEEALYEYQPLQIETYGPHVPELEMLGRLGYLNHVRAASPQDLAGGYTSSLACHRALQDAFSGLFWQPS
experimental-details: Flint assay, end-point fluorescence (5 nM CDK7/Cyclin H/MAT-1 complex)
Assay type: biochemical
measurement-setup: read-out: CDK7 (5 nM) pIC50 (converted)
From the text: Human CDK7 (amino acids 1-346) containing an N-terminal His6-tag followed by a tobacco etch virus (TEV) protease cleavage site, human MAT1 (amino acids 1-309) and human cyclin H (amino acids 1-323) were co-expressed in the baculovirus-SF9 insect cell expression system to generate a trimeric complex. […]
# IC50 binned as label 0: < 5 nM; label 1: ≥ 5 nM and < 10 nM; label 2: ≥ 10 nM

molecule	class
C[C@@H]1Cc2cnc(N[C@H]3CCN(C)C(=O)C3)nc2CN1C(=O)[C@H]1CCN(C)C[C@@H]1c1ccccc1 (relative stereo) [Compound 5]	label 0
CN1CC[C@H](C(=O)N2Cc3nc(NC4CCOCC4)ncc3CC2(C)C)[C@@H](c2ccccc2)C1 (relative stereo) [Compound 189]	label 2
C[C@@H]1Cc2cnc(NC[C@@H]3CCCO3)nc2CN1C(=O)[C@H]1CCN(C)C[C@@H]1c1ccccc1 [Compound 67]	label 2
C[C@@H]1Cc2cnc(N[C@@H]3CCOC(C)(C)C3)nc2CN1C(=O)[C@H]1CCN(C)C[C@@H]1c1ccccc1 (relative stereo) [Compound 40]	label 1
C[C@H]1Cc2cnc(NCc3ccn(C)n3)cc2CN1C(=O)[C@H]1CCN(C)C[C@@H]1c1ccccc1 (relative stereo) [Compound 174]	label 0
[2H]C([2H])([2H])N1CC[C@H](C(=O)N2Cc3nc(NCc4ccccc4)ncc3C[C@H]2C)[C@@H](c2ccccc2)C1 (single isomer, unassigned) [Compound 154]	label 0
C[C@H]1Cc2cnc(Nc3cnn(C)c3)cc2CN1C(=O)[C@H]1CCN(C)C[C@@H]1c1ccccc1 (relative stereo) [Compound 176]	label 1
C[C@@H]1Cc2cnc(N[C@H]3CCC(=O)N(C)C3)nc2CN1C(=O)[C@H]1CCN(C)C[C@@H]1c1ccccc1 (relative stereo) [Compound 7]	label 0
Cc1cc([C@@H]2CN(C)CC[C@H]2C(=O)N2Cc3nc(NC4CCOCC4)ncc3C[C@H]2C)ccn1 (relative stereo) [Compound 102]	label 2
C[C@@H]1Cc2cnc(NCc3cc[nH]n3)nc2CN1C(=O)[C@H]1CCN(C)C[C@@H]1c1ccccc1 [Compound 51]	label 1
C[C@@H]1CN(C)CC[C@H]1C(=O)N1Cc2nc(NC3CCOCC3)ncc2C[C@H]1C (relative stereo) [Compound 145]	label 2
C[C@H]1Cc2cnc(NC3CCOCC3)nc2CN1C(=O)N1CCN(C)C[C@H]1c1cccc(F)c1 (relative stereo) [Compound 212]	label 0
C[C@@H]1Cc2cnc(N[C@H]3CCOC4(CCC4)C3)nc2CN1C(=O)[C@H]1CCN(C)C[C@@H]1c1ccccc1 (relative stereo) [Compound 9]	label 1
Cc1cccc([C@H]2CN(C)CC[C@@H]2C(=O)N2Cc3nc(Nc4cnn(C)c4)ncc3C[C@H]2C)c1 (relative stereo) [Compound 126]	label 0
C[C@@H]1Cc2cnc(NC3CCOCC3)nc2CN1C(=O)[C@H]1CCN(C)C[C@@H]1c1cccc(F)c1 (relative stereo) [Compound 133]	label 1
C[C@H]1Cc2cnc(NC3CCOCC3)cc2CN1C(=O)[C@H]1CCN(C)C[C@@H]1c1ccccc1 (single isomer, unassigned) [Compound 171a]	label 1
C[C@@H]1Cc2cnc(N[C@@H]3CCC(=O)N(C)C3)nc2CN1C(=O)[C@H]1CCN(C)C[C@@H]1c1ccccc1 (relative stereo) [Compound 6]	label 0
[2H]C([2H])([2H])N1CC[C@@H](C(=O)N2Cc3nc(NCc4ccn(C)n4)ncc3C[C@H]2C)[C@H](c2cccc(C)c2)C1 (single isomer, unassigned) [Compound 148]	label 0
CO[C@H]1CC[C@H](Nc2ncc3c(n2)CN(C(=O)[C@H]2CCN(C)C[C@@H]2c2ccc(C)nc2)[C@H](C)C3)CC1 (relative stereo) [Compound 110]	label 2
CO[C@H]1CC[C@H](Nc2cc3c(cn2)C[C@H](C)N(C(=O)[C@@H]2CCN(C)C[C@H]2c2cccc(C)c2)C3)CC1 [Compound 177a]	label 2
